Reported HepG2 cytotoxicity 12pt dose response: Maximum inhibition (%) values are given for each entry in this list.
Test system: HepG2-A16-CD81 hepatocytes
Experiment: HepG2 cytotoxicity screening (CellTiter-Glo)
Details: 12pt dose response, maximum inhibition
Numeric only. Scale: %

// molecule Fc1ccc(N2CCCN(c3ccc(Cn4ccnc4)cn3)CC2)cc1 [UCSD-0828381] , assay HepG2-A16-CD81 hepatocytes, HepG2 cytotoxicity 12pt dose response: Maximum inhibition (%) value: 52.6

New cases:
Record for COc1cccc(CNc2cc(C)nc(-c3ccncc3)n2)c1OC [UCSD-0704521] under target or system HepG2-A16-CD81 hepatocytes: HepG2 cytotoxicity 12pt dose response: Maximum inhibition (%) reported as 80.5

Response field HepG2 cytotoxicity 12pt dose response: Maximum inhibition (%) (HepG2-A16-CD81 hepatocytes) for item COc1c(C)cnc(CN2CCC(N(C)C(C)C(N)=O)CC2)c1C (stereo not drawn) [UCSD-0844796] : -0.307

Test item COc1ccc(-c2cc(CNc3ncnc4c3CCNCC4)no2)cc1 [UCSD-0833048] ; HepG2-A16-CD81 hepatocytes; reported HepG2 cytotoxicity 12pt dose response: Maximum inhibition (%) was 49.3

Record for COc1cccc(CN2CCC(CO)(Cc3ccc(Cl)cc3)CC2)c1O [UCSD-0828601] under target or system HepG2-A16-CD81 hepatocytes: HepG2 cytotoxicity 12pt dose response: Maximum inhibition (%) reported as 82.8

The recorded HepG2 cytotoxicity 12pt dose response: Maximum inhibition (%) with HepG2-A16-CD81 hepatocytes for Cc1cc(NC(=O)C(C)C)n(-c2nc(C)c(C)c(=O)[nH]2)n1 [UCSD-0786977] was 36.8

I looked up O=C(O)CSc1nnc(-c2cn[nH]c2)n1-c1ccccc1C(F)(F)F [UCSD-0830442] and its HepG2 cytotoxicity 12pt dose response: Maximum inhibition (%) for HepG2-A16-CD81 hepatocytes was 4.76

Reading of HepG2 cytotoxicity 12pt dose response: Maximum inhibition (%) for CC(NC(=O)c1cc(-c2cccc(Cl)c2)no1)C(=O)N1CCCC1 (stereo not drawn) [UCSD-0819519] with HepG2-A16-CD81 hepatocytes: 0.675

Response field HepG2 cytotoxicity 12pt dose response: Maximum inhibition (%) (HepG2-A16-CD81 hepatocytes) for item CC(C)c1cc(=O)[nH]c(-n2nc(C3CC3)cc2N)n1 [UCSD-0786965] : 73.6

----------
Tested on: P. falciparum Dd2 (PfLuc) line expressing firefly luciferase, asexual blood stage
Test: microbe, parasite or virus in culture
Format: cell-based, Plasmodium falciparum
Settings: Plasmodium falciparum, DD2; 11-pt dose response, 96hr; read-out: CDD P. falciparum Luciferase ABS 11-pt Reconfirmation Dose Response (96hr): Maximum inhibition (%)
# cutoff 90% applies to Emax; >= gives fulfilled, < gives not fulfilled

Below, 7 compounds whose answers are already recorded.
Emax >= 90% for CCN1CCCN(S(=O)(=O)c2cc3ccccc3o2)CC1 [DDD01067562] ?
not fulfilled

Form field: Emax at least 90%? Entry: Cc1cccnc1CN1CC[C@H](Oc2cccc(F)c2)[C@@](C)(O)C1 [DDD01060871]
fulfilled

Reported Emax reaches at least 90% for COCCN1CCC2(CC1)CC(NCc1ccc(C)s1)c1ccccc12 (stereo not drawn) [DDD01082023] ?
fulfilled

Decide: is the reported value of Emax for Cc1ncc(CN(Cc2ccccn2)Cc2ccccc2Cl)n1C [DDD01058742] equal to or greater than 90%?
fulfilled

Identify whether the reported Emax of the following compound is 90% or greater: Cc1cc(C)n(C2CN(CC(O)c3cc(F)ccc3F)C2)n1 (stereo not drawn) [DDD01298957]
fulfilled

Test whether the compound Cc1ccc(CN2CCC3(CC2)CCN(Cc2ccco2)CC3)cc1 [DDD01031591] records Emax of 90% or higher.
fulfilled

Is the recorded value of Emax equal to or greater than 90% for this compound? CN(CCO)C[C@@H]1CN(Cc2ccccc2-c2ccccc2)C[C@@H]1CO [DDD01252927]
fulfilled

Moving on to another compound below.
Please check the record CC(C)CNC(=O)C1(Cc2ccccc2-c2cccs2)CCNC1 (stereo not drawn) [DDD01059689] and state if its Emax is at or above 90%.
not fulfilled

----------
In this section we review reported Emax values for a set of compounds.
System: P. falciparum Dd2 (PfLuc) line expressing firefly luciferase, asexual blood stage
Test: microbe, parasite or virus in culture
Format: cell-based, Plasmodium falciparum
Conditions: Plasmodium falciparum, DD2; 11-pt dose response, 96hr; read-out: CDD P. falciparum Luciferase ABS 11-pt Reconfirmation Dose Response (96hr): Maximum inhibition (%)
Give the value; after it, write the unit.

Here are 4 compounds together with their reported answers.
// Emax (P. falciparum Dd2 (PfLuc) line expressing firefly luciferase, asexual blood stage) for NCC1CCN(C2CCN(c3ccc(-c4ccco4)cc3)CC2)C1 (centres unmarked) = 100%

Entry Clc1ccc(C2(CNC3=NCCN3)CCCC2)cc1 under P. falciparum Dd2 (PfLuc) line expressing firefly luciferase, asexual blood stage had Emax of 98.3%

P. falciparum Dd2 (PfLuc) line expressing firefly luciferase, asexual blood stage assay, compound COCC(O)CN(C)c1ccnc2cc(Br)ccc12 (centres unmarked) , recorded Emax = 99.9%

Short answer on P. falciparum Dd2 (PfLuc) line expressing firefly luciferase, asexual blood stage for COc1cccc(CNC(CN2CCN(C)CC2)c2ccccc2)c1 (centres unmarked) , Emax: 98.1%

Please turn your attention to the following entry.
Reported P. falciparum Dd2 (PfLuc) line expressing firefly luciferase, asexual blood stage Emax for item NCC1Cc2cc(-c3nccc(N4CCC(O)CC4)n3)cc(Cl)c2O1 (centres unmarked) was 96.7%

----------
Target: recombinant firefly luciferase (Photinus pyralis, UniProt P08659)
Sequence (P08659 whole entry): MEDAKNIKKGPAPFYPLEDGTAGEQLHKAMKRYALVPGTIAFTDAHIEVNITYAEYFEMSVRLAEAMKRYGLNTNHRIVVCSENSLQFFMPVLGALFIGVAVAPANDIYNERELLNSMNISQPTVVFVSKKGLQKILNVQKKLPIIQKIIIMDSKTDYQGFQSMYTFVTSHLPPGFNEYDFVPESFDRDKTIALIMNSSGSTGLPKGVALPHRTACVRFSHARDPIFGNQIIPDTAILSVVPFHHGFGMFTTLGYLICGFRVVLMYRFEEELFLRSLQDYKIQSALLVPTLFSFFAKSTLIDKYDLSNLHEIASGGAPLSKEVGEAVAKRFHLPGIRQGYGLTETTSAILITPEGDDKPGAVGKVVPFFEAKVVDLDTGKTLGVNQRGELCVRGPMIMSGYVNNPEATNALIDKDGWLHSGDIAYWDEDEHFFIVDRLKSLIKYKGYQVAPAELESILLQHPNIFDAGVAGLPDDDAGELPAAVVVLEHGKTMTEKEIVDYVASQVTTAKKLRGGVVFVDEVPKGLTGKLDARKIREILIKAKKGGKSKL
Test: biochemical
Conditions: dose response; read-out: rLuc inhibition dose response: IC50
pIC50: −log10 of the molar value.
Some molecules, each annotated with its measured pIC50.

Take a look at these entries with their results.
The molecule COC1CCN(c2ccc(NC(=O)C3CC3)cc2C(F)(F)F)CC1 on recombinant firefly luciferase (Photinus pyralis, UniProt P08659): pIC50 was < 4.60

Tested on recombinant firefly luciferase (Photinus pyralis, UniProt P08659), the item CC(NC(=O)c1cc(-c2cccc(Cl)c2)no1)C(=O)N1CCCC1 (stereo not shown) showed pIC50 equal to < 4.60

Further cases:
pIC50 for recombinant firefly luciferase (Photinus pyralis, UniProt P08659) with input Clc1ccccc1-c1cc(CNc2ncnc3c2CCNCC3)no1 equals < 4.60

Reported pIC50 (recombinant firefly luciferase (Photinus pyralis, UniProt P08659)) for entry COc1c(C)cnc(CN2CCC(N(C)C(C)C(N)=O)CC2)c1C (stereo not shown) is < 4.60

----------
Each record here notes measured inhibition at 2 µM.
Assay: HepG2 cytotoxicity screening (CellTiter-Glo)
Conditions: human, uninfected HepG2-A16-CD81 (EGFP) hepatocytes
Report the figure in % without appending any unit label.

# annotated cases, reported inhibition at 2 µM shown
Short answer for Cc1ccc(CN2CCCC3(CCN(Cc4ccoc4)CC3)C2)cc1 [UCSD-0791105] : inhibition at 2 µM was -2.23

Per the records, this compound ( Cc1nc(C(=O)N2CC[C@@]3(C[C@@H](NS(C)(=O)=O)CCO3)C2)cs1 [UCSD-0821817] ) has inhibition at 2 µM equal to 25.6

New cases:
So for Cc1noc(NC(=O)c2ccc(OC(F)(F)F)cc2)n1 [UCSD-0844950] , the logged inhibition at 2 µM turned out to be 4.58

Short answer for COc1cc(CN(C)C(=O)Cc2c(C)nn(C)c2C)ccc1OC(F)F [UCSD-0819780] : inhibition at 2 µM was 7.57

Summary for this compound, COc1c(CNCc2ccc(C(=O)N(C)C(C)C)cc2)c(C)nn1C [UCSD-0723791] : inhibition at 2 µM is 0.82

----------
Assay: in vitro
Conditions: human
Parameter: inhibition at 10 µM (%)
# value in %; strip the unit string

Quick note, inhibition at 10 µM for CCS(=O)(=O)N1[CH]Cc2ccc(NC(=O)Nc3cccc(C#N)c3)cc21 landed at 39.2

----------
Listed here: items and their measured IC50.
Assay: HepG2 cytotoxicity screening (CellTiter-Glo)
Settings: human, uninfected HepG2-A16-CD81 (EGFP) hepatocytes

Some compounds with known IC50 results, for comparison:
Record Cc1cccc(NC(=O)c2[nH]nc(C(C)C)c2Br)n1 [UCSD-0842406] . Reported IC50: > 50 µM

Item: O=c1c2sccc2nc2n1CCN(Cc1ccccc1C(F)(F)F)CC2 [UCSD-0801403] | IC50: > 25 µM

Lab book: IC50 of Cc1cc(C(=O)N2CCN(c3nc4c(C(C)C)cccc4s3)CC2)no1 [UCSD-0787009] noted as > 25 µM

IC50 measured on CN1CCCC(CCC(=O)N2CCc3sc(C(=O)N(C)C)cc3C2)C1 (centres unmarked) [UCSD-0833754] = > 50 µM

In the following, a different compound is considered.
IC50 recorded for this compound, Cc1n[nH]c(CN2CCN(c3ncnc4scc(C)c34)CC2)c1Cl [UCSD-0836325] , is > 16.6 µM

Cited source: paper PMC7155171
